These measurements were taken from ChEMBL document CHEMBL4725387.

- testedOn: Voltage-gated inwardly rectifying potassium channel KCNH2 (Homo sapiens, UniProt Q12809)
- Sequence (Q12809 whole entry): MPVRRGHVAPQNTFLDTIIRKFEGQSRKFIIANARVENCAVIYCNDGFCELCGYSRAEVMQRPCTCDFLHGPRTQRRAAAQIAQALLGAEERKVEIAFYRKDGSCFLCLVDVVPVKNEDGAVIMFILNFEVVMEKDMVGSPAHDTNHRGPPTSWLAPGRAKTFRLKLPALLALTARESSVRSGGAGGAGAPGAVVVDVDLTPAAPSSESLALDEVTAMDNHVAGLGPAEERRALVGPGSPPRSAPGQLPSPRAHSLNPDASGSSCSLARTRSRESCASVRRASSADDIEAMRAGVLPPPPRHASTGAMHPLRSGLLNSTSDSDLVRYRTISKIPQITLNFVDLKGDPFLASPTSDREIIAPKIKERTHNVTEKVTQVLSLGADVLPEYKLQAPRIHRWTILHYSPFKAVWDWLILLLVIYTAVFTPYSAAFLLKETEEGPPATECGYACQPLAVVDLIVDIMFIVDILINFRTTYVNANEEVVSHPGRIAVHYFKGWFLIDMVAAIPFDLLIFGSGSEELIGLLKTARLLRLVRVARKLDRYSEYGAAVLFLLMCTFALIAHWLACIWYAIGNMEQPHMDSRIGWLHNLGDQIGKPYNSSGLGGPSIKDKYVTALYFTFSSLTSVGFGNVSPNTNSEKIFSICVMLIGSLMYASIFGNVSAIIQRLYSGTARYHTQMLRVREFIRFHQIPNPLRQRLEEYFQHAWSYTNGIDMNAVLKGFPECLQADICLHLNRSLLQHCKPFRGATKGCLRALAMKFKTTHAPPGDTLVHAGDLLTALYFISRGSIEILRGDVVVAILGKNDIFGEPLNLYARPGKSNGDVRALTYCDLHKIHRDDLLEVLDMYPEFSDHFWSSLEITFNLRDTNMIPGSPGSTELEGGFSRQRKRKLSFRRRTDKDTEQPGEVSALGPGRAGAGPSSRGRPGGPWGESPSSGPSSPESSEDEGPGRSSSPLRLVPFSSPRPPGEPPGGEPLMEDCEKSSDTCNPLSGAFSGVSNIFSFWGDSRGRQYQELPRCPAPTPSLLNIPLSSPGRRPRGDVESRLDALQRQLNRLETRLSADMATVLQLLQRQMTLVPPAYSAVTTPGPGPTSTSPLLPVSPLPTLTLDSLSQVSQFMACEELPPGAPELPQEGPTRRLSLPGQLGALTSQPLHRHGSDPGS
- methodSummary: Inhibition of human ERG by patch-clamp method
assayMetric: IC50 (nM)
# output: bare number, implied unit nM

For CC(=O)Nc1ccc(OCCCN2CCC(c3noc4cc(F)ccc34)CC2)cc1 , write its IC50.
2980

Consider the compound CC(=O)Nc1ccc(OCCCCN2CCC(c3noc4cc(F)ccc34)CC2)cc1 and give its recorded IC50.
369

----------
So I've got a bunch of compounds here, and I need their Ki values.
- testedOn: 5-hydroxytryptamine receptor 1A (Homo sapiens, UniProt P08908)
- Sequence (P08908 whole entry): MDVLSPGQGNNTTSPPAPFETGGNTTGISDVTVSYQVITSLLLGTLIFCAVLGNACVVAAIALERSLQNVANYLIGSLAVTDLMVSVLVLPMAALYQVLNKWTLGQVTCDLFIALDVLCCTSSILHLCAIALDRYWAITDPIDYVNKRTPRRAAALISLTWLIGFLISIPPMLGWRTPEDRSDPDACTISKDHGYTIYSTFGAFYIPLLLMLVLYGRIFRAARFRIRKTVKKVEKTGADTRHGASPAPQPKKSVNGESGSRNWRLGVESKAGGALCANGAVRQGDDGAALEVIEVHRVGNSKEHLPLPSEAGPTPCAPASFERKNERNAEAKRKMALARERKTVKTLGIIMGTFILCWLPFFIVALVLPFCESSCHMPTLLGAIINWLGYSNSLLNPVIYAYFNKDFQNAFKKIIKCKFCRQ

Kindly indicate its recorded Ki. Item: CC(=O)Nc1ccc(OCCCN2CCN(c3cccc(C(F)(F)F)c3)CC2)cc1
> 10 µM

Look up and report measured Ki for this entry: CC(=O)Nc1cccc(OCCCN2CCC(c3noc4cc(F)ccc34)CC2)c1
> 10 µM

For CC(=O)Nc1ccc(OCCCN2CCN(c3ncccn3)CC2)cc1 , write its Ki.
> 10 µM
